molecular target: HumRadA2 (humanised, monomeric RadA from Pyrococcus furiosus) (Pyrococcus furiosus) (UniProt O74036); test: ITC; peptide (2.5-5 mM) titrated into HumRadA2 (64-83 μM) at 25 °C, MicroCal iTC200, 200 mM Tris pH 7.5, 100 mM NaCl; single-site model, stoichiometry fixed as 1.0 for weak-binding ligands; low c-value conditions
metric: Kd (µM)
Answers are plain numbers, in µM.

Specify measured Kd for Ac-FHTA-NH2 [FHTA tetrapeptide (FxxA motif of BRC4 of BRCA2)] .
280

Data provenance is paper PMC4855620.
